// provenance: ChEMBL document CHEMBL4177710

Task for the reader: assign each of the following compounds its reported pIC50.
- measured.target: UniProt:P07374
- Sequence (P07374 whole entry): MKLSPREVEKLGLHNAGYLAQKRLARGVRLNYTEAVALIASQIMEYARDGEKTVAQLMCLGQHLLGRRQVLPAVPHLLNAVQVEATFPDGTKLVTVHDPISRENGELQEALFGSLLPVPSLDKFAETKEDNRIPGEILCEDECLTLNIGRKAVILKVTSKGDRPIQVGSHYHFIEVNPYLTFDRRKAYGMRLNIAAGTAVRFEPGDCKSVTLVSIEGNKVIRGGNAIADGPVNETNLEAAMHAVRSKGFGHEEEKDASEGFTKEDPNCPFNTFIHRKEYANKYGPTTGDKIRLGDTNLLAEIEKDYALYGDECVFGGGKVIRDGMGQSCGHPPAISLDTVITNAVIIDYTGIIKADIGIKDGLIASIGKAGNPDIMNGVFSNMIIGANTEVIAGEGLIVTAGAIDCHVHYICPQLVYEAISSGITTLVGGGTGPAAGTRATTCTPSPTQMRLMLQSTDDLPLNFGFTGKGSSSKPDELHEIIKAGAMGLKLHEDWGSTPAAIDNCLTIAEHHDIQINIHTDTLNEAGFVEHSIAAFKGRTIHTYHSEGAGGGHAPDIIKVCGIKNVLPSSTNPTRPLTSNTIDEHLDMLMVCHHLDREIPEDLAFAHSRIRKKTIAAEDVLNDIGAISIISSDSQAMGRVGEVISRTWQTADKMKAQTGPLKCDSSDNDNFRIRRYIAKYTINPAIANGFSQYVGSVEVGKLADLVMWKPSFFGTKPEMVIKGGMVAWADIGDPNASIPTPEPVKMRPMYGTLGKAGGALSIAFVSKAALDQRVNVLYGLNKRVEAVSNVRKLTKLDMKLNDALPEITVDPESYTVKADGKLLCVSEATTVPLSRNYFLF
- assay.text: Inhibition of jack bean urease assessed as reduction in ammonia production using urea as substrate after 15 mins by indophenol method
Answers are plain numbers, as −log10 of the molar value.

Recorded pIC50, per entry:
Cc1ccc(C(c2c[nH]c3ccc(C(=O)NNC(=S)Nc4cccc(F)c4)cc23)c2c[nH]c3ccc(C(=O)NNC(=S)Nc4cccc(F)c4)cc23)cc1    6.01
Cc1ccc(C(c2c[nH]c3ccc(C(=O)NNC(=S)Nc4ccc(Br)cc4)cc23)c2c[nH]c3ccc(C(=O)NNC(=S)Nc4ccc(Br)cc4)cc23)cc1    5.89

Next, consider the following compound.
Ask: What value of pIC50 has been recorded for this entry: Cc1ccc(C(c2c[nH]c3ccc(C(=O)NNC(=S)Nc4ccc(Cl)cc4)cc23)c2c[nH]c3ccc(C(=O)NNC(=S)Nc4ccc(Cl)cc4)cc23)cc1
Result: 5.56
